The values you see were collected from ChEMBL document CHEMBL1944555.

# measured-target: Neuraminidase (Influenza A virus (strain A/Brevig Mission/1/1918 H1N1) (Influenza Avirus (strain A/South Carolina/1/1918 H1N1)), UniProt Q9IGQ6)
# Sequence (Q9IGQ6 whole entry): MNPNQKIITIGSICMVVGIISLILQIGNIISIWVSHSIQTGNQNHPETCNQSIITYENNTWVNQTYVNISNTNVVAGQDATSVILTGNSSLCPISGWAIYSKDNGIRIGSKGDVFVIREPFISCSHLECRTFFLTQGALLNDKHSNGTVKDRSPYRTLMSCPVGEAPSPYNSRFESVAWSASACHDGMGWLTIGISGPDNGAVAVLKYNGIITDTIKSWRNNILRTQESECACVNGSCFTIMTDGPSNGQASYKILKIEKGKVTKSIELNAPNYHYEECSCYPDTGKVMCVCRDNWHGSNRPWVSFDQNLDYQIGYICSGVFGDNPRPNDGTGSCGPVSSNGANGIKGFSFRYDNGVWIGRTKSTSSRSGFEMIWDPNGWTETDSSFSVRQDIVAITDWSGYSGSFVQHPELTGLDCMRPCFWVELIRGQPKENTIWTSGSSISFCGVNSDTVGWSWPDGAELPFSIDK
# experiment: Inhibition of recombinant influenza A virus H1N1 A/Bervig_Mission/1/18 sialidase activity using 4-methylumbelliferyl-alpha-D-N-acetylneuraminic acid sodium salt hydrate as substrate by fluorimetric analysis
property: IC50

Q: // returns reported IC50 for input CC(C)=CCC(OC(=O)C=C(C)C)c1coc(-c2cc(O)ccc2O)c1 (stereo not drawn)
Ans: > 100 µM

Q: Now give it for CC(C)=CCC(OC(=O)C(C)C)c1coc(-c2cc(O)ccc2O)c1 (stereo not drawn) too.
Ans: > 100 µM

Q: Now give it for CC(C)=CCC(OC(=O)CC(C)C)c1coc(-c2cc(O)ccc2O)c1 (stereo not drawn) too.
Ans: > 100 µM
